# assay name: qHTS assay for small molecule disruptors of the mitochondrial membrane potential - cell viability (AID 720634); also: nearly all actives have a fitted effect of over 20% in size
# test settings: HepG2 viability, ATP luminescence (CellTiter-Glo), 1 h; series mostly up to 83.2 µM
Records with an inconclusive call do not appear. Active and inactive are the calls of the source. Calls follow the shape of the full dose curve.
Returns: one label drawn from label 1 for active, label 0 for inactive

See these solved cases before continuing.
smi | assigned category
CCC(=O)O[C@H]1CC[C@H]2[C@@H]3CCC4=CC(=O)CC[C@]4(C)[C@H]3CC[C@]12C | label 0
COP(=S)(OC)Oc1cc(Cl)c(Cl)cc1Cl | label 0
Nc1ccncc1 | label 0
O=[N+]([O-])c1ccc(O)c([N+](=O)[O-])c1 | label 1

Now, please, on to the next compound.
Incoming: # outcome recorded in this test, key = `CCOc1cc(Oc2ccc(C(F)(F)F)cc2Cl)ccc1[N+](=O)[O-]`
Outgoing: label 1

====

# target system: Luciferin 4-monooxygenase (Photinus pyralis) (UniProt P08659)
# Sequence (P08659 whole entry, looked up): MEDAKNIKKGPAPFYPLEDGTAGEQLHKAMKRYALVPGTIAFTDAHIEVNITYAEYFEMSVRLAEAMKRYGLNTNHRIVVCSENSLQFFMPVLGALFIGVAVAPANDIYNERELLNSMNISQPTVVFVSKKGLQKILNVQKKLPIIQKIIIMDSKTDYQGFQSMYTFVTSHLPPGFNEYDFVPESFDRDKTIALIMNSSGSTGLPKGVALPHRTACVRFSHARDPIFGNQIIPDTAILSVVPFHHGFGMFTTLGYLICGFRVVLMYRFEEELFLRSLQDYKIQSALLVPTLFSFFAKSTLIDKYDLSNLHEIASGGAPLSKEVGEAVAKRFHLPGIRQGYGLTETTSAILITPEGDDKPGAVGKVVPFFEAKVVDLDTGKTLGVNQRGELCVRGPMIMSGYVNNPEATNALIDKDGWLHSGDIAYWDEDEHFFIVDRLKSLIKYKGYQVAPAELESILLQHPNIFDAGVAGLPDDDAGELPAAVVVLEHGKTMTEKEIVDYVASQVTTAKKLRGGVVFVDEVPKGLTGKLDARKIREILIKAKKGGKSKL
# assay name: qHTS assay to identify small molecule inhibitors of firefly luciferase (AID 1224835); also: nearly all actives have a fitted effect of over 25% in size
# test settings: purified P. pyralis luciferase, luminescence inhibition; series mostly up to 115 µM
Records with an inconclusive call do not appear. The source made the active and inactive calls. The call rests on the fitted dose curve; in most records, active means well fitted inhibition curve with a large enough effect in the repeat runs; inconclusive means weak or mixed curves; inactive means flat fitted curve, though single readings scatter.
Returns: one label drawn from class 1 (active), class 0 (inactive)

See these solved cases before continuing.
compound | target system | assigned category
N#CC(Br)Br | Luciferin 4-monooxygenase (Photinus pyralis) (UniProt P08659) | class 0
Nc1ccc(Cl)c(Cl)c1 | Luciferin 4-monooxygenase (Photinus pyralis) (UniProt P08659) | class 0
CCC(CC)Nc1c([N+](=O)[O-])cc(C)c(C)c1[N+](=O)[O-] | Luciferin 4-monooxygenase (Photinus pyralis) (UniProt P08659) | class 0
Brc1ccc(Oc2cc(Br)c(Br)cc2Br)c(Br)c1 | Luciferin 4-monooxygenase (Photinus pyralis) (UniProt P08659) | class 0
CCC(C)(c1ccc(O)cc1)c1ccc(O)cc1 | Luciferin 4-monooxygenase (Photinus pyralis) (UniProt P08659) | class 0

Incoming: # outcome recorded in this test, key = `Cc1cc(Cl)ccc1OCCCC(=O)O`
Outgoing: class 1

Incoming: Repeat for the following compound: CC1(C)C(C=C(Cl)Cl)C1C(=O)OC(C#N)c1cccc(Oc2ccccc2)c1 (stereo not given)
Outgoing: class 0

Incoming: Repeat for the following compound: `CC(C)(c1cc(Cl)c(O)c(Cl)c1)c1cc(Cl)c(O)c(Cl)c1`
Outgoing: class 0

Incoming: Repeat for the following compound: `C=CC(=O)OCCO`
Outgoing: class 0

Incoming: Repeat for the following compound: `O=S(=O)(Oc1ccc(Cl)cc1)c1ccc(Cl)cc1`
Outgoing: class 0

Incoming: Repeat for the following compound: `CCN(N=O)C(N)=O`
Outgoing: class 0

Incoming: Repeat for the following compound: `CC(C)NC(C)C`
Outgoing: class 0

Incoming: Repeat for the following compound: `NNC(N)=S`
Outgoing: class 0

Incoming: Repeat for the following compound: CCCCC(CC)COC(=O)c1ccc(C(=O)OCC(CC)CCCC)c(C(=O)OCC(CC)CCCC)c1 (stereo not given)
Outgoing: class 0

Incoming: Repeat for the following compound: CC(C)=CC1C(C(=O)OCc2coc(Cc3ccccc3)c2)C1(C)C (stereo not given)
Outgoing: class 0

====

# target system: Luciferin 4-monooxygenase (Photinus pyralis)
# assay name: qHTS assay to identify small molecule inhibitors of firefly luciferase (AID 1224835); also: nearly all actives have a fitted effect of over 25% in size
# test settings: purified P. pyralis luciferase, luminescence inhibition; series mostly up to 115 µM
Inconclusive results are not listed. Active and inactive are the calls of the source. The call rests on the fitted dose curve; in most records, active means well fitted inhibition curve with a large enough effect in the repeat runs; inconclusive means weak or mixed curves; inactive means flat fitted curve, though single readings scatter.

smi | outcome
NCc1cccnc1 | inactive
CC(C)N(C(=O)SCC(Cl)=C(Cl)Cl)C(C)C | inactive
O=Cc1ccco1 | inactive
